B1: scFv; the commonest letter at each place (parent)
chain 1: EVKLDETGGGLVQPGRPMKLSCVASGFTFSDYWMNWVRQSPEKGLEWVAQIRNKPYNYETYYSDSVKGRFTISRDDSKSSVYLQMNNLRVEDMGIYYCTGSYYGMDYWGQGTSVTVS
chain 2: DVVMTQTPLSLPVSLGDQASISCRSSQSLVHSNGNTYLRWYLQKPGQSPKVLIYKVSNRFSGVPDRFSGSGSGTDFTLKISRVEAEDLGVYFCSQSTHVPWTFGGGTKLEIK

variants of: B1; experiment: yeast surface expression (ratio to wild type); higher = more expressed; conditions: format: scFv 4-4-20, heavy + light
result_type: yeast surface expression

mut="chain 1 S101W D106S" reported=0.516
mut="chain 1 S30T W33F" reported=0.909
mut="chain 1 G104L" reported=0.556
mut="chain 1 D31E M34N" reported=0.61
mut="chain 1 T28P S30N" reported=1.1
mut="chain 1 Y102L M105I" reported=1.57
mut="chain 1 G100Q W108R" reported=0.232
mut="chain 1 G100M S101V" reported=0.549
mut="chain 1 D106L W108M" reported=0.541
mut="chain 1 W33C N35W" reported=0.456
mut="chain 1 Y102K Y107R" reported=0.991
mut="chain 1 Y103D Y107N" reported=1.12
mut="chain 1 V37M" reported=0.958
mut="chain 1 S101I M105V" reported=0.468
mut="chain 1 G109V" reported=0.34
mut="chain 1 G100R W108C" reported=0.246
mut="chain 1 T28W W33F W36P" reported=0.554
mut="chain 1 D31A V37K" reported=0.623
mut="chain 1 S30C W36E" reported=0.214
mut="chain 1 M34Y" reported=1.05
mut="chain 1 Y102L D106E" reported=1.26
mut="chain 1 Y32Q W33N" reported=0.726
